All figures here come from ChEMBL document CHEMBL5108016.

- assayProcedure: Cytotoxicity against mouse Neuro2a cells assessed as inhibition of cell growth incubated for 24 hrs by MTT assay
- Format: toxicity, cell-based, N2a
measuredMetric: IC50 at 24 h

Need IC50 at 24 h, item CCCC/C=C\CCCCCCCC(=O)N[C@@H](CO[C@@H]1O[C@H](CO)[C@@H](O[C@@H]2O[C@H](CO)[C@H](O[C@@H]3O[C@H](CO)[C@H](O)[C@H](O[C@@H]4O[C@H](CO)[C@H](O)[C@H](O)[C@H]4O)[C@H]3NC(C)=O)[C@H](O[C@]3(C(=O)O)C[C@H](O)[C@@H](NC(C)=O)[C@@H]([C@@H](O)[C@H](O)CO)O3)[C@H]2O)[C@H](O)[C@H]1O)[C@H](O)/C=C/CCCCCCCCCCCCC < 25 µM

---

IC50 at 24 h reference
- assayProcedure: Cytotoxicity against mouse Neuro2a cells assessed as inhibition of cell growth incubated for 24 hrs by MTT assay
- Format: toxicity, cell-based, N2a

>  <chemSmiles>
CCCCCCCCCCCCC/C=C/[C@@H](O)[C@H](CO[C@@H]1O[C@H](CO)[C@@H](O[C@@H]2O[C@H](CO)[C@H](O[C@@H]3O[C@H](CO)[C@H](O)[C@H](O[C@@H]4O[C@H](CO)[C@H](O)[C@H](O)[C@H]4O)[C@H]3NC(C)=O)[C@H](O[C@]3(C(=O)O)C[C@H](O)[C@@H](NC(C)=O)[C@@H]([C@@H](O)[C@H](O)CO)O3)[C@H]2O)[C@H](O)[C@H]1O)NC(=O)CCCCCCCCCCCCCCCCC

>  <IC50 at 24 h>
> 200 µM

$$$$
>  <chemSmiles>
CCCCCCCC/C=C\CCCCCCCC(=O)N[C@@H](CO[C@@H]1O[C@H](CO)[C@@H](O[C@@H]2O[C@H](CO)[C@H](O[C@@H]3O[C@H](CO)[C@H](O)[C@H](O[C@@H]4O[C@H](CO)[C@H](O)[C@H](O)[C@H]4O)[C@H]3NC(C)=O)[C@H](O[C@]3(C(=O)O)C[C@H](O)[C@@H](NC(C)=O)[C@@H]([C@@H](O)[C@H](O)CO)O3)[C@H]2O)[C@H](O)[C@H]1O)[C@H](O)/C=C/CCCCCCCCCCCCC

>  <IC50 at 24 h>
> 200 µM

$$$$

Need IC50 at 24 h, item CCCCCC/C=C\CCCC(=O)N[C@@H](CO[C@@H]1O[C@H](CO)[C@@H](O[C@@H]2O[C@H](CO)[C@H](O[C@@H]3O[C@H](CO)[C@H](O)[C@H](O[C@@H]4O[C@H](CO)[C@H](O)[C@H](O)[C@H]4O)[C@H]3NC(C)=O)[C@H](O[C@]3(C(=O)O)C[C@H](O)[C@@H](NC(C)=O)[C@@H]([C@@H](O)[C@H](O)CO)O3)[C@H]2O)[C@H](O)[C@H]1O)[C@H](O)/C=C/CCCCCCCCCCCCC < 25 µM

Need IC50 at 24 h, item CCCCCCCCCCCCCCC/C=C/[C@@H](O)[C@H](CO[C@@H]1O[C@H](CO)[C@@H](O[C@@H]2O[C@H](CO)[C@H](O[C@@H]3O[C@H](CO)[C@H](O)[C@H](O[C@@H]4O[C@H](CO)[C@H](O)[C@H](O)[C@H]4O)[C@H]3NC(C)=O)[C@H](O[C@]3(C(=O)O)C[C@H](O)[C@@H](NC(C)=O)[C@@H]([C@@H](O)[C@H](O)CO)O3)[C@H]2O)[C@H](O)[C@H]1O)NC(=O)CCCCCCCCCCCCCCCCC > 200 µM

Need IC50 at 24 h, item CCCCCC/C=C\CCCCCCCC(=O)N[C@@H](CO[C@@H]1O[C@H](CO)[C@@H](O[C@@H]2O[C@H](CO)[C@H](O[C@@H]3O[C@H](CO)[C@H](O)[C@H](O[C@@H]4O[C@H](CO)[C@H](O)[C@H](O)[C@H]4O)[C@H]3NC(C)=O)[C@H](O[C@]3(C(=O)O)C[C@H](O)[C@@H](NC(C)=O)[C@@H]([C@@H](O)[C@H](O)CO)O3)[C@H]2O)[C@H](O)[C@H]1O)[C@H](O)/C=C/CCCCCCCCCCCCCCC > 200 µM

Need IC50 at 24 h, item CCCCCCCC/C=C/CCCCCCCC(=O)N[C@@H](CO[C@@H]1O[C@H](CO)[C@@H](O[C@@H]2O[C@H](CO)[C@H](O[C@@H]3O[C@H](CO)[C@H](O)[C@H](O[C@@H]4O[C@H](CO)[C@H](O)[C@H](O)[C@H]4O)[C@H]3NC(C)=O)[C@H](O[C@]3(C(=O)O)C[C@H](O)[C@@H](NC(C)=O)[C@@H]([C@@H](O)[C@H](O)CO)O3)[C@H]2O)[C@H](O)[C@H]1O)[C@H](O)/C=C/CCCCCCCCCCCCCCC > 200 µM
